system tested: HER2 expressed on the surface of cells (human, UniProt P04626 23-1255)
protocol description: cell-based or functional assay
property: growth inhibition span (percentage of cells killed), BT474 cells (%)
Give just the number in %; leave the unit off.

Query block: What value of measured growth inhibition span (percentage of cells killed), BT474 cells is listed for Variant 14018 (antibody, name in Kabat numbering, V domains shown, also called v14018) VH: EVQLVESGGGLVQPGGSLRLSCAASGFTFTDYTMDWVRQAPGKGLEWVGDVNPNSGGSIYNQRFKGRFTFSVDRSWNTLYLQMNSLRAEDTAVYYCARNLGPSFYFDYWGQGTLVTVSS VL: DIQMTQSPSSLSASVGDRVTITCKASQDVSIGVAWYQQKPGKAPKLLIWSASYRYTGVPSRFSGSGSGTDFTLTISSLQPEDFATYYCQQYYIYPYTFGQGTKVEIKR ?
Result block: 30

Recorded values, source patent US20180273635A1.
